All values here come from patent US20190177417A1.

assay-system: T1, Axl protein (human, UniProt P30530 26-451)
T1 construct: extracellular domain; also called human Axl; hAxl
T1 sequence (looked up): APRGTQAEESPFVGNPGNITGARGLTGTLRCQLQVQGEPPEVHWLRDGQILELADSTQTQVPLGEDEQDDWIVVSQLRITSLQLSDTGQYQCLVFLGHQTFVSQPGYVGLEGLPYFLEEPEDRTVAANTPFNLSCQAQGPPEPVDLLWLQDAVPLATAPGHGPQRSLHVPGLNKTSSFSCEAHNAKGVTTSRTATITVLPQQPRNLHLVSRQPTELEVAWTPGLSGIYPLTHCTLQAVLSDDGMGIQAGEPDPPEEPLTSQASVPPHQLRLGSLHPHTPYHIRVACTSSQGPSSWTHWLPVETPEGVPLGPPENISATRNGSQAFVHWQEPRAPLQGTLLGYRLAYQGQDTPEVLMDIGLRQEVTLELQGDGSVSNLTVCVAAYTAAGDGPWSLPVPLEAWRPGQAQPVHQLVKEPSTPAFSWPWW
method-summary: ELISA, 1:9 dilution, pH 6.0 over pH 7.4
# Affinity ELISA CPE mutant ratio (1:9, pH 6.0/7.4) annotations
Numeric answer only, unit ratio assumed.

Query: Value lookup for Affinity ELISA CPE mutant ratio (1:9, pH 6.0/7.4); key = LC-V029W (antibody, V domains shown) VH: EVQLVQSGAEVKKPGATVKISCKVSGYSFTGHTMNWIRQPPGKGLEWIGLIKPSNGGTSYNQKFKGRVTISADKSISTAYLQWSSLKASDTAMYYCAHGHYESYFAMDYWGQGTLVTVSS VL: DIQMTQSPSSLSASVGDRVTITCKASQDWSSAVAWYQQKPGQAPRLLIYWASTRHTGVPSRFSGSGSGTEFTLTISSLQPDDFATYYCQEHFSTPLTFGQGTKVEIK
Result: 2.35

Okay, next one:
Query: Value lookup for Affinity ELISA CPE mutant ratio (1:9, pH 6.0/7.4); key = LC-H091S (antibody, V domains shown) VH: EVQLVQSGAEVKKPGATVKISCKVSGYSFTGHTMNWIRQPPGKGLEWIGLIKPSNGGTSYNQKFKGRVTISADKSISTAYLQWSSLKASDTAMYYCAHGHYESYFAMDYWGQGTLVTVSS VL: DIQMTQSPSSLSASVGDRVTITCKASQDVSSAVAWYQQKPGQAPRLLIYWASTRHTGVPSRFSGSGSGTEFTLTISSLQPDDFATYYCQESFSTPLTFGQGTKVEIK
Result: 1.34
